System: Staphylococcus aureus
assay summary: Minimum inhibitory concentration against Staphylococcus aureus - methicillin resistant Ciprofloxacin sensitive strain MI300
Type: functional
quantity name: MIC

COc1c(N2CCC[C@H](N)C2)ccc2c(=O)c(C(=O)O)cn(C3CC3)c12 | < 0.06 µg/mL
CC[C@@H]1CCN(c2ccc3c(=O)c(C(=O)O)cn(C4CC4)c3c2Cl)C[C@H]1N | < 0.004 µg/mL
CC[C@@H]1CCN(c2nc3c(cc2F)c(=O)c(C(=O)O)cn3C2CC2)C[C@H]1N | 0.25 µg/mL
N[C@H]1CCCN(c2nc3c(cc2F)c(=O)c(C(=O)O)cn3C2CC2)C1 | 2 µg/mL

Hey, quick one: what's MIC for each of these?
1. O=C(O)c1cn(C2CC2)c2c(Cl)c(N3CCNCC3)ccc2c1=O
2. O=C(O)c1cn(C2CC2)c2cc(N3CCNCC3)c(F)cc2c1=O
3. CC[C@@H]1CCN(c2c(F)cc3c(=O)c(C(=O)O)cn(C4CC4)c3c2OC)C[C@H]1N
4. CC[C@@H]1CCN(c2ccc3c(=O)c(C(=O)O)cn(C4CC4)c3c2OC)C[C@H]1N

Resp:
["0.25 µg/mL", "0.25 µg/mL", "0.008 µg/mL", "< 0.004 µg/mL"]

Req: If you can, please state the reported MIC value of COc1c(N2CCC[C@H](N)C2)c(F)cc2c(=O)c(C(=O)O)cn(C3CC3)c12 .
Resp: 0.031 µg/mL
